- test.system: VEGFR2, unphosphorylated (Homo sapiens (Human), UniProt P35968)
- Sequence (P35968 whole entry, looked up): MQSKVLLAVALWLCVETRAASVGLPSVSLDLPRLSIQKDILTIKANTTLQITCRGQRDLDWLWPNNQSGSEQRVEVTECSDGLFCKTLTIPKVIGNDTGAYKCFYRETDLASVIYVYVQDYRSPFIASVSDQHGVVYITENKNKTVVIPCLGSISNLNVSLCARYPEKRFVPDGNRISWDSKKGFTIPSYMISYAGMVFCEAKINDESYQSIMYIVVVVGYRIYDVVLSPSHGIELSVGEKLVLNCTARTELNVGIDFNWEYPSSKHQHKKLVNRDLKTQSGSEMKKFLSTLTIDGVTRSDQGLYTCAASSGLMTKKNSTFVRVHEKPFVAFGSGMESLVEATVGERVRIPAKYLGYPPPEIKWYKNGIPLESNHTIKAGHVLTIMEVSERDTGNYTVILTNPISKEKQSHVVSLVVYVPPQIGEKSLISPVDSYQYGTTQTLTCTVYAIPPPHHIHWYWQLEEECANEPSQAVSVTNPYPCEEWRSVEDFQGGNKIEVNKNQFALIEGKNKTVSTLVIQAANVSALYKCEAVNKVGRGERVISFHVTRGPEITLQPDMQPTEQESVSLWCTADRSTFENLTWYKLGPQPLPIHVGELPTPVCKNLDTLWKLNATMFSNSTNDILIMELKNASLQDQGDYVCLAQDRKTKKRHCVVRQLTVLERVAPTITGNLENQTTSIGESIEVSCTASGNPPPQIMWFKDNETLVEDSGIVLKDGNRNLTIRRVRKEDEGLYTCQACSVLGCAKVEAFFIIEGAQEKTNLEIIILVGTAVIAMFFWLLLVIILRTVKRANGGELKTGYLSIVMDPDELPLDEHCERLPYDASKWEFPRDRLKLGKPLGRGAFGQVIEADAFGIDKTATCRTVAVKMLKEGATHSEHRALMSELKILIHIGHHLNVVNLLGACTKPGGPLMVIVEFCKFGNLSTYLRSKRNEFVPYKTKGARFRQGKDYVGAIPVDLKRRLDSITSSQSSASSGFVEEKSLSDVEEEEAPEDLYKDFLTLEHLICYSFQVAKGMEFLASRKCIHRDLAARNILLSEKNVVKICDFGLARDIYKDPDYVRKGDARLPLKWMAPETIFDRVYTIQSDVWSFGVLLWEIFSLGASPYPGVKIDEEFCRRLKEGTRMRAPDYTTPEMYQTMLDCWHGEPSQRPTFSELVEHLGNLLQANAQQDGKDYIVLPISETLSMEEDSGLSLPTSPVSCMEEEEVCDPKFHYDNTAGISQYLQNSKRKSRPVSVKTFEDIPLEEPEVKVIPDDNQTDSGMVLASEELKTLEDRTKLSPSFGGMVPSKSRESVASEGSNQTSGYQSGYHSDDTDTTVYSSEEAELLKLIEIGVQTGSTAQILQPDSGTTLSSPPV
- protocol.notes: VEGFR ADP GLO assay
- Type: biochemical
- assay.context: 5 nM VEGFR2, 1.2 mM ATP, 1 mg/mL Srctide, 180 min
parameter: IC50

Use the examples below as a reference point.
compound=COC(=O)C1(c2cccc(Nc3ncc4c(Nc5cc(C(=O)NCCN6CCCC6(C)C)cnc5C)nn(C)c4n3)c2)CC1 parameter=IC50 result="5.57 µM"
compound=Cc1cc(C(=O)NCCN2CCC[C@@H]2C)sc1Nc1nn(C)c2nc(Nc3cnn(C)c3)ncc12 parameter=IC50 result="> 7.5 µM"
compound=Cc1ncc(C(=O)NCCN2CCCC2(C)C)cc1Nc1nn(C)c2nc(Nc3ccc(N4CCOCC4)nc3)ncc12 parameter=IC50 result="> 7.5 µM"

Dear colleague, could you send me IC50 for each of the items below? Thanks.
1. Cc1ncc(NC(=O)C2(C(=O)N3CCN(C)CC3)CC2)cc1Nc1nn(C)c2nc(Nc3cnn(C)c3)ncc12
2. Cc1ncc(C(=O)NCCN2CCCC2(C)C)cc1Nc1nn(C)c2nc(Nc3cncnc3)ncc12
3. CC(=O)Nc1cccc(Nc2ncc3c(Nc4cc(C(=O)NCCN5CCCC5(C)C)cnc4C)nn(C)c3n2)c1
4. Cc1ncc(C(=O)NCCN2C[C@H](C)O[C@@H](C)C2)cc1Nc1nn(C)c2nc(Nc3ccnc(N4CCC(CCO)CC4)c3)ncc12
5. Cc1ncc(C(=O)NCCN(CCF)C2CCCC2)cc1Nc1nn(C)c2nc(Nc3cnn(C)c3)ncc12

// result
1. > 7.5 µM
2. > 10 µM
3. > 7.5 µM
4. > 7.5 µM
5. 2.53 µM

Hello, I would appreciate it if you could give IC50 for each entry below.
1. Cc1ncc(C(=O)NCCN2CCCC2(C)C)cc1Nc1nn(C)c2nc(Nc3cccc(CC(=O)O)c3)ncc12
2. COCC1CCCN1CCNC(=O)c1cnc(C)c(Nc2nn(C)c3nc(Nc4cnn(C)c4)ncc23)c1 (stereo not drawn)
3. Cc1ncc(C(=O)NCCN2CCC23CCC3)cc1Nc1nn(C)c2nc(Nc3cnn(C)c3)ncc12
4. Cn1cc(Nc2ncc3c(Nc4cc(C(=O)NCCN5CCCC5(C)C)ccc4F)nn(C)c3n2)cn1

// result
1: 2.19 µM; 2: > 7.5 µM; 3: 6.56 µM; 4: > 7.5 µM

Look up IC50 for the entries below, preserving their order.
1. Cc1ncc(C(=O)NCCN2CCCC2(C)C)cc1Nc1nn(C)c2nc(Nc3cncc(CC(=O)O)c3)ncc12
2. Cc1ncc(C(=O)NCCN2CC3COCC3C2)cc1Nc1nn(C)c2nc(Nc3cnn(C)c3)ncc12 (stereo not drawn)
3. Cc1ncc(C(=O)NCCC2CCCCC2)cc1Nc1nn(C)c2nc(Nc3cncc(CC(=O)O)c3)ncc12
4. Cc1ncc(C(=O)NCCN2CCC(C)(C)C2)cc1Nc1nn(C)c2nc(Nc3cnn(C)c3)ncc12
5. Cc1ncc(C(=O)NCCN2CCCC2(C)C)cc1Nc1nn(C)c2nc(Nc3ccc(=O)[nH]c3)ncc12
6. CC[C@H]1COCCN1CCNC(=O)c1cnc(C)c(Nc2nn(C)c3nc(Nc4cnn(C)c4)ncc23)c1
7. Cc1ncc(C(=O)NCCN2CCCC2(C)C)cc1Nc1nn(C)c2nc(Nc3ccnc(N)c3)ncc12
8. Cc1ncc(C(=O)NCCN2CCCC2(C)C)cc1Nc1nn(C)c2nc(Nc3ccc(=O)[nH]n3)ncc12

// result
1: 2.19 µM; 2: > 7.5 µM; 3: 0.011 µM; 4: > 7.5 µM; 5: > 7.5 µM; 6: 2.5 µM; 7: > 7.5 µM; 8: > 7.5 µM
